Listed here: items and their measured T1/2.
# method_description: Plasma stability, beagle dog plasma (K2EDTA)
# Format: in vitro ADME
# run_parameters: beagle dog plasma, 2 μM, anti-coagulant K2-EDTA
Express the result in h but write the number alone.

Consider the worked cases shown below.
Challenge: Look at this compound and give its reported T1/2. "CNS(=O)(=O)Nc1nccc(Cc2c(CN(C)C)c3ccc(OC(=O)N(C)C)cc3oc2=O)c1F"
Response given: 94.15

Challenge: Follow-up entry: "CNS(=O)(=O)Nc1cccc(Cc2c(CN(C)C)c3cc(F)c(OC(=O)N(C)C)cc3oc2=O)c1F"
Response given: 9.88

Please turn your attention to the following entry.
Challenge: Look at this compound and give its reported T1/2. "CNS(=O)(=O)Nc1cccc(Cc2c(CN3CCNCC3)c3cc(F)c(OC(=O)N(C)C)cc3oc2=O)c1F"
Response given: 10.4
